- assayed.system: Induced myeloid leukemia cell differentiation protein Mcl-1 (Homo sapiens, UniProt Q07820)
- Sequence (Q07820 whole entry): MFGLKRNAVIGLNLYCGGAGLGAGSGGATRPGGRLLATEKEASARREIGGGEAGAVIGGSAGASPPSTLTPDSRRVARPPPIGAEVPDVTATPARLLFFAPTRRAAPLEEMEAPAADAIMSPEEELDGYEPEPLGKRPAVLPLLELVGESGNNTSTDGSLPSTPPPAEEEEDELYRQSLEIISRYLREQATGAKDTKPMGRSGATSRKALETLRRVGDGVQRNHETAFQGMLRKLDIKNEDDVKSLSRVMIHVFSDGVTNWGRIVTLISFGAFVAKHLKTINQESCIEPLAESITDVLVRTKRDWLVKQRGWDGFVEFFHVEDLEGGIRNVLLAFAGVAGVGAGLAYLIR
- experimental.details: Displacement of FAM-Bid peptide from N-terminal 8x His-tagged MCl-1 (unknown origin) expressed in Escherichia coli BL21 (DE3) after 30 mins by fluorescence polarization assay
measured.endpoint: Ki (nM)

Some solved cases for reference:
{"entry.smiles": "CC(C)Oc1ccc(-c2cc(C(=O)O)nn2-c2ccccc2)cc1", "display.unit": "nM", "Ki": 3620}
{"entry.smiles": "CC(C)c1ccc2/c(=N\\c3ccc(Oc4ccccc4)cc3)c3cc(O)c(O)c(O)c3n(C(=O)c3ccc(C(C)(C)C)cc3)c2c1", "display.unit": "nM", "Ki": 79}
{"entry.smiles": "CC(C)COc1ccc(-c2cc(C(=O)O)nn2-c2ccccc2)cc1", "display.unit": "nM", "Ki": 8110}

a: CCOc1ccc(-c2c(NC(=O)c3ccc(C(C)(C)C)cc3)c(C(=O)O)nn2-c2ccc(Oc3ccccc3)cc2)cc1
b: CCOc1ccc(-c2c(NC(=O)c3ccccc3)c(C(=O)O)nn2-c2ccc(Oc3ccccc3)cc2)cc1
Prompt: Thinking about recorded Ki values, which is higher, a or b ? Identify your selection by its label.
Completion: b
